Data credit: the supplement of paper PMC6897291

# Test system: RIVA
# RUN DESCRIPTION: growth inhibition by drug alone (1 - RLU/untreated control) (fraction); higher = stronger inhibition
# CONDITION SET: 10 nM; time (day): 5; 177Lu-lilotomab satetraxetan 0 ug/ml
Would you please tag the item MET when its growth inhibition by drug alone is -0.08 or above, and NOT MET when it is below?

# count of solved cases: 3
Cc1ccc([N+](=O)[O-])cc1S(=O)(=O)N(C)/N=C/c1cnc2ccc(Br)cn12
MET
COc1cc(Nc2ncc(F)c(Nc3ccc4c(n3)N(COP(=O)(O)O)C(=O)C(C)(C)O4)n2)cc(OC)c1OC
NOT MET
C[C@]12CC[C@@H]3c4ccc(O)cc4CC[C@H]3[C@@H]1CC[C@@H]2O [Estradiol]
MET

Now examine the next entry.
Ask: Please check the record `CCn1c(-c2nonc2N)nc2cnc(Oc3cccc(NC(=O)c4ccc(OCCN5CCOCC5)cc4)c3)cc21` and state if its growth inhibition by drug alone is at or above -0.08.
Reply: NOT MET

* * *

# Test system: RIVA
# RUN DESCRIPTION: growth inhibition by drug plus 177Lu-lilotomab satetraxetan (1 - RLU/untreated control) (fraction); higher = stronger inhibition
# CONDITION SET: 10 nM; time (day): 4; 177Lu-lilotomab satetraxetan 0.5 ug/ml
Hi there, I'd appreciate the recorded growth inhibition by drug plus 177Lu-lilotomab satetraxetan for every entry that follows.
Give bare numbers.

CC(C)OC(=O)C1=CN(C(=O)c2ccc(F)c(F)c2)CC(C)(C)c2c1[nH]c1ccccc21
0.594
Cc1cc(Nc2cc(N3CCN(C)CC3)nc(/C=C/c3ccccc3)n2)n[nH]1
0.485
COc1ccc(-c2oc3cc(OC)ccc3c2C(=O)c2ccc(C#N)cc2)cc1
0.559
O=c1oc2c(O)c(O)cc3c(=O)oc4c(O)c(O)cc1c4c23
0.481
CCNC(=O)c1noc(-c2cc(C(C)C)c(O)cc2O)c1-c1ccc(CN2CCOCC2)cc1
0.414
CS(=O)(=O)c1cccc(CNc2nc(Nc3ccc4c(c3)CCC(=O)N4)ncc2C(F)(F)F)c1
0.549
c1ccc2c(CCNc3ccc(Nc4ccncc4)cc3)c[nH]c2c1
0.475
COc1ccc(C2=N[C@@H](c3ccc(Cl)cc3)[C@@H](c3ccc(Cl)cc3)N2C(=O)N2CCNC(=O)C2)c(OC(C)C)c1
0.472

Please report growth inhibition by drug plus 177Lu-lilotomab satetraxetan for every entry that follows.
1. CC[C@H](CO)Nc1nc(NCc2ccccc2)c2ncn(C(C)C)c2n1 [Roscovitine (Seliciclib, CYC202)]
2. Cc1nnc(C(C)C)n1C1C[C@H]2CC[C@@H](C1)N2CC[C@H](NC(=O)C1CCC(F)(F)CC1)c1ccccc1 (stereo in doubt)
3. CCCS(=O)(=O)Nc1ccc(F)c(C(=O)c2c[nH]c3ncc(-c4ccc(Cl)cc4)cc23)c1F
4. C[C@@H]1CN(CC(=O)Nc2ccc3c(c2)Cc2cccc(-c4cc(=O)cc(N5CCOCC5)o4)c2S3)C[C@H](C)O1
5. CC(C)C(=O)Nc1ccc([N+](=O)[O-])c(C(F)(F)F)c1 [Flutamide (Eulexin)]
6. CCOc1cc2ncc(C#N)c(Nc3ccc(F)c(Cl)c3)c2cc1NC(=O)/C=C/CN(C)C [Pelitinib (EKB-569)]

Reply:
[0.539, 0.609, 0.546, 0.441, 0.616, 0.432]

* * *

# System: U-2932
# RUN DESCRIPTION: growth inhibition by drug alone (1 - RLU/untreated control) (fraction); higher = stronger inhibition
# CONDITION SET: 10 nM; time (day): 4; 177Lu-lilotomab satetraxetan 0 ug/ml
Where a name gives a salt, the structure may show the parent alone.
So I've got a bunch of molecules here, and I need their growth inhibition by drug alone values.

Here is how some molecules turned out for growth inhibition by drug alone.
Cn1cncc1[C@@](N)(c1ccc(Cl)cc1)c1ccc2c(c1)c(-c1cccc(Cl)c1)cc(=O)n2C [Tipifarnib (Zarnestra)]
0.0396
C=C1/C(=C\C=C2/CCC[C@]3(C)[C@@H]([C@H](C)/C=C/[C@H](C)C(C)C)CC[C@@H]23)C[C@@H](O)C[C@@H]1O
0.125
COc1c(C)c2c(c(O)c1C/C=C(\C)CCC(=O)O)C(=O)OC2 [Mycophenolic (Mycophenolate)]
0.162
O=C(CCCCCCC(=O)Nc1cccnc1)NO [Pyroxamide]
-0.0929

State the recorded growth inhibition by drug alone for every item in the following list.
1. CC1(COc2ccc3c(c2)ncn3-c2ccc3cccc(N4CCC(N)CC4)c3n2)COC1
2. C[C@@H](N)[C@H]1CC[C@H](C(=O)Nc2ccncc2)CC1
3. CCN(CC)C(=S)SSC(=S)N(CC)CC
4. CNNCc1ccc(C(=O)NC(C)C)cc1 [Procarbazine hydrochloride (Matulane)]

Reply:
1: 0.0633; 2: -0.0313; 3: 0.0424; 4: 0.0702

* * *

# Test system: RIVA
# RUN DESCRIPTION: growth inhibition by drug alone (1 - RLU/untreated control) (fraction); higher = stronger inhibition
# CONDITION SET: 100 nM; time (day): 5; 177Lu-lilotomab satetraxetan 0 ug/ml
Counter-ions that a name gives are not always drawn.
READOUT TYPE: growth inhibition by drug alone
One number for each entry.

C#CCN(C)CC1=Cc2ccccc2Oc2ccccc21
-0.112
COc1ccccc1OCC(O)CN1CCN(CC(=O)Nc2c(C)cccc2C)CC1 (stereo not drawn) [Ranolazine (Ranexa)]
-0.161
CCC1=C[C@@H]2CN(C1)Cc1c([nH]c3ccccc13)[C@@](C(=O)OC)(c1cc3c(cc1OC)N(C)[C@H]1[C@@](O)(C(=O)OC)[C@H](OC(C)=O)[C@]4(CC)C=CCN5CC[C@]31[C@@H]54)C2
0.968
COc1cc(N2CCC(N3CCN(C)CC3)CC2)ccc1Nc1ncc(Cl)c(Nc2ccccc2S(=O)(=O)C(C)C)n1
-0.341
Cn1cnc2c(F)c(Nc3ccc(Br)cc3Cl)c(C(=O)NOCCO)cc21 [AZD6244 (Selumetinib)]
-0.319
C[C@]12CC[C@@H]3c4ccc(O)cc4C[C@@H](CCCCCCCCC[S+]([O-])CCCC(F)(F)C(F)(F)F)[C@H]3[C@@H]1CC[C@@H]2O (stereo partly drawn)
-0.055
COc1cc2c(cc1OC)CN(CCc1ccc(NC(=O)c3cccc4c(=O)c5cccc(OC)c5[nH]c34)cc1)CC2
-0.283
CN(CCOc1ccc(CC2SC(=O)NC2=O)cc1)c1ccccn1 (stereo not drawn)
-0.0959
O=C1c2ccccc2C(=O)c2c(NCCc3ccc(O)cc3)ccc(NCCc3ccc(O)cc3)c21
-0.893
Nc1ncn([C@H]2C[C@H](O)[C@@H](CO)O2)c(=O)n1
-0.00108

Return reported growth inhibition by drug alone values for all items listed beneath this line.
1. CCCCc1nc2cc(/C=C/C(=O)NO)ccc2n1CCN(CC)CC
2. N#CC(c1ccnc(NCCc2cccnc2)n1)c1nc2ccccc2s1 (stereo not drawn)
3. CC1(CN2CCC(n3c(=O)[nH]c4ccccc43)CC2)OCc2ccccc2-n2cccc21 (stereo not drawn)
4. Clc1ccc(Nc2nnc(Cc3ccncc3)c3ccccc23)cc1 [Vatalanib dihydrochloride (PTK787)]
5. CCCC(=O)[O-].[Na+] [Sodium butyrate]
6. N#Cc1ccc(COC[C@H]2O[C@@H](n3c(NCc4ccc(Cl)c(Cl)c4)nc4c(N)ncnc43)[C@H](O)[C@@H]2O)cc1
7. O=C(/C=C/c1cccnc1)NCCCCC1CCN(C(=O)c2ccccc2)CC1

Reply:
1: 0.418; 2: -0.338; 3: -0.319; 4: -0.0924; 5: -0.3; 6: -0.323; 7: 0.982

* * *

# Tested on: U-2932
# RUN DESCRIPTION: growth inhibition by drug alone (1 - RLU/untreated control) (fraction); higher = stronger inhibition
# CONDITION SET: 1000 nM; time (day): 4; 177Lu-lilotomab satetraxetan 0 ug/ml
Exercise: for every item that follows, state its recorded growth inhibition by drug alone.
Numbers only.

O=C(CCc1ccc(O)cc1)c1c(O)cc(O)cc1O [Phloretin (Dihydronaringenin)]
0.0218
Nc1nc2[nH]cc(CCc3ccc(C(=O)N[C@@H](CCC(=O)O)C(=O)O)cc3)c2c(=O)[nH]1 [Pemetrexed]
0.948
O=C1[C@H](CC[C@H](O)c2ccc(F)cc2)[C@@H](c2ccc(O)cc2)N1c1ccc(F)cc1 [Ezetimibe (Zetia)]
0.113
Cc1ccc([N+](=O)[O-])cc1S(=O)(=O)N(C)/N=C/c1cnc2ccc(Br)cn12
0.969

Batch lookup, growth inhibition by drug alone per entry.
1. COc1cc2ncnc(-n3nc(-c4ccccn4)nc3N)c2cc1OC
2. CN(Cc1cnc2nc(N)nc(N)c2n1)c1ccc(C(=O)N[C@@H](CCC(=O)O)C(=O)O)cc1 [Abitrexate (Methotrexate)]

Reply:
0.0631
0.93

* * *

# Tested on: U-2932
# RUN DESCRIPTION: growth inhibition by drug alone (1 - RLU/untreated control) (fraction); higher = stronger inhibition
# CONDITION SET: 10 nM; time (day): 4; 177Lu-lilotomab satetraxetan 0 ug/ml
Where a name gives a salt, the structure may show the parent alone.
So I've got a bunch of compounds here, and I need their growth inhibition by drug alone values.
One number for each entry.

Worked cases, answers included:
O=C(c1ccc(OCCN2CCCCC2)cc1)c1c(-c2ccc(O)cc2)sc2cc(O)ccc12 [Evista (Raloxifene Hydrochloride)]
0.04
Nc1ccc(-c2ccc3ncc4ccc(=O)n(-c5cccc(C(F)(F)F)c5)c4c3c2)cn1
0.318
C[C@]12CC[C@@H]3c4ccc(O)cc4C[C@@H](CCCCCCCCC[S+]([O-])CCCC(F)(F)C(F)(F)F)[C@H]3[C@@H]1CC[C@@H]2O (some centres not stated)
-0.00253
Cc1cc(Nc2cc(N3CCN(C)CC3)nc(Sc3ccc(NC(=O)C4CC4)cc3)n2)n[nH]1
-0.0133
O=C(O)Cc1cccc(OCCCN(Cc2cccc(C(F)(F)F)c2Cl)CC(c2ccccc2)c2ccccc2)c1
0.0747

Give growth inhibition by drug alone for each listed item.
1. CNC(=O)c1ccc(C)c(-n2c(C)cc(OCc3ccc(F)cc3F)c(Br)c2=O)c1
2. Cn1c(=O)c(F)c(Nc2ccc(I)cc2F)c2c(=O)n(C[C@@H](O)CO)cnc21
3. NC(=O)c1ccc(-c2nc(-c3ccccn3)c(-c3ccc4c(c3)OCO4)[nH]2)cc1
4. Cc1cc(O)c2c(c1)C(=O)c1cccc(O)c1C2=O
5. Cc1ccc(-n2nc(C(C)(C)C)cc2NC(=O)Nc2ccc(OCCN3CCOCC3)c3ccccc23)cc1
6. COc1cc([C@@H]2c3cc4c(cc3[C@@H](O[C@@H]3O[C@@H]5CO[C@@H](C)O[C@H]5[C@H](O)[C@H]3O)[C@H]3COC(=O)[C@H]23)OCO4)cc(OC)c1O [Etoposide (VP-16)]

Reply:
[-0.0123, 0.135, 0.0821, -0.0671, 0.206, -0.0505]
